assay: self-splicing fitness, log relative to wild type (ln ratio); higher = more splicing; Tetrahymena group I intron in knt gene, E. coli kanamycin selection, DiMSum; sequences stand for … in CUCUCU…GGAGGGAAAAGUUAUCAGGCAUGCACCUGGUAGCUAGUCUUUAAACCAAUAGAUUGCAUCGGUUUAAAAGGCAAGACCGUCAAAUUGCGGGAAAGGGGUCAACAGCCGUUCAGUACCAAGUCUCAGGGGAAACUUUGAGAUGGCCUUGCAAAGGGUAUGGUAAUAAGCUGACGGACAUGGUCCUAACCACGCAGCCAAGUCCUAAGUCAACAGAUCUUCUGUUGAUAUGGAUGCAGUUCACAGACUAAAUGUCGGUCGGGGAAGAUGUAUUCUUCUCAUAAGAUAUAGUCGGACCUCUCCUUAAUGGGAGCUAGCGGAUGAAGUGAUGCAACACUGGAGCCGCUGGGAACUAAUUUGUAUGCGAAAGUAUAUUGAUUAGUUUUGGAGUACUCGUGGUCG; details: 30 °C;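 also: selection with 25 µg/mL kanamycin versus none on LB agar overnight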
Use Y when the recorded self-splicing fitness (ln) is no lower than -3; use N when it is lower.

Evaluate `GUCAAGCAAUAUUACGCCUU` : self-splicing fitness (ln) at minimum -3?
Y

Similarly, `CGUAAGCAAUAUUACGAUGG` ?
Y

// repeat for `CGUUAGCAAUAUUACGUGAU` and report
N

Next entry: `CCUCAGCAAUAUUACGACGC`
N

Same question for `AACUAGCAAUAUUACGAGAA` please.
Y

Next: `CCACAGCAAUAUUACGUAUG`
Y

Could you do the same for `AUUAAGCAAUAUUACGUCAA` , please?
Y

// next record `CACUAGCAAUAUUACGCUAA`
N

Same lookup for `GCAAAGCAAUAUUACGUCCU` , please.
Y

Field entry: `AAAUAGCAAUAUUACGGAAA`
Y

Here is the next sequence: `AGUCAGCAAUAUUACGCUCA`
Y

Next up: `UUUAAGCAAUAUUACGAUUU`
Y

Another sequence to check: `CAGCAGCAAUAUUACGUUUC`
N

Ok, now `AGUGAGCAAUAUUACGAGUC`
N

====

assay: self-splicing fitness, log relative to wild type (ln ratio); higher = more splicing; Tetrahymena group I intron in knt gene, E. coli kanamycin selection, DiMSum; sequences stand for … in CUCUCU…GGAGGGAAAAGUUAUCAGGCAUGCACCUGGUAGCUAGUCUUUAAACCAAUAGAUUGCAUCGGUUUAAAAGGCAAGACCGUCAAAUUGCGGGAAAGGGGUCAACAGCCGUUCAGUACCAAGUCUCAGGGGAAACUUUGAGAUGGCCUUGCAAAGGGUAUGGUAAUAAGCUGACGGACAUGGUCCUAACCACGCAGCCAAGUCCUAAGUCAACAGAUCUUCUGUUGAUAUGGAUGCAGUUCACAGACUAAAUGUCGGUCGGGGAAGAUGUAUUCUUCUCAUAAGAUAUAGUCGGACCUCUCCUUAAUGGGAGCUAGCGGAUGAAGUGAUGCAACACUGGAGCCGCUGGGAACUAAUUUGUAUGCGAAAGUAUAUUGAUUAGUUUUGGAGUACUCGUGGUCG; conditions: 37 °C
measured_property: self-splicing fitness (ln)
Give the figure by itself; no unit, no explanation.

# self-splicing fitness (ln) lookup, item `GUCCAGCAAUAUUACGAGGU`
-1.34

Another sequence to check: `UACGAGCAAUAUUACGAUUC`
-2.83

Next sequence: `UCGGAGCAAUAUUACGUGCA`
-1.03

Then this sequence: `CACCAGCAAUAUUACGACCC`
-2.98

Then this sequence: `CGAGAGCAAUAUUACGUUCA`
-2.69

What do you get for `CAGCAGCAAUAUUACGUCCU` ?
-0.614

// same read-out, input: `CUUGAGCAAUAUUACGUUUC`
-2.68

Next record, please: `AGGCAGCAAUAUUACGUACG`
0.303

Now this one: `AUACAGCAAUAUUACGACUG`
-0.848

What about `GCGUAGCAAUAUUACGGGGC` ?
-2.67

Another sequence: `GUAGAGCAAUAUUACGGGGU`
-2.07

Same question, `CGAGAGCAAUAUUACGUUCG` this time
-1.73

Here is the next sequence: `UACAAGCAAUAUUACGCGUU`
-1.71

Now the same for `CCAAAGCAAUAUUACGUAUU`
-2.71

Try the sequence `GAAUAGCAAUAUUACGCUGU`
-2.1

Please do the same for `ACGUAGCAAUAUUACGCGCA` as well.
-0.337
